molecular target: T1, CD28 (endogenously expressed on Jurkat/IL2 reporter cells) (human, UniProt P10747 19-220); test: flow cytometry, Jurkat/IL2 reporter cells (endogenous CD28), PE anti-human Fc
T1 construct: Endogenous CD28 of Jurkat cells; also called human CD28

{"Binder": "variant CD80 IgV-Fc Q33K/E35D/D46V/L85Q (Fc fusion, not shown: a dimerising Fc or GST) VIHVTKEVKEVATLSCGHNVSVEELAQTRIYWKKDKKMVLTMMSGVMNIWPEYKNRTIFDITNNLSIVILALRPSDEGTYECVVQKYEKDAFKREHLAEVTLSVKAD", "Value Units": "MFI", "MFI at 33.3 nM": 257}
{"Binder": "variant CD80 IgV-Fc Y31S/E35D/M47L/T79L/E88G (Fc fusion, not shown: a dimerising Fc or GST) VIHVTKEVKEVATLSCGHNVSVEELAQTRISWQKDKKMVLTMMSGDLNIWPEYKNRTIFDITNNLSIVILALRPSDEGLYECVVLKYGKDAFKREHLAEVTLSVKAD", "Value Units": "MFI", "MFI at 33.3 nM": 278}
{"Binder": "variant CD80 IgV-Fc Q33L/E35D/M47I/L85Q (Fc fusion, not shown: a dimerising Fc or GST) VIHVTKEVKEVATLSCGHNVSVEELAQTRIYWLKDKKMVLTMMSGDINIWPEYKNRTIFDITNNLSIVILALRPSDEGTYECVVQKYEKDAFKREHLAEVTLSVKAD", "Value Units": "MFI", "MFI at 33.3 nM": 287}
{"Binder": "variant CD80 IgV-Fc A26E/E35D/M43T/M47L/L85Q/R94Q (Fc fusion, not shown: a dimerising Fc or GST) VIHVTKEVKEVATLSCGHNVSVEELEQTRIYWQKDKKMVLTMTSGDLNIWPEYKNRTIFDITNNLSIVILALRPSDEGTYECVVQKYEKDAFKQEHLAEVTLSVKAD", "Value Units": "MFI", "MFI at 33.3 nM": 260}
